# experimentalSystem: Cytochrome P450 2C9 (Homo sapiens)
# assaySummary: Cytochrome panel assay with activity outcomes
# testContext: recombinant CYP, pro-luciferin dealkylation, luminescence, p450-cyp2c9; series mostly up to 57.1 µM
In all, about 16,000 compounds went through this assay and about 4,000 (25%) were called active. Roughly 26% stayed inconclusive and do not appear here. Not all results are given here.
parameterMeasured: AC50

1) COCCNC(=O)c1ccc2c(c1)nc(C)n2-c1cc(OC)c(OC)c(OC)c1	inactive
2) C/C(=N\NC(=O)c1ccc(Cl)cc1)c1cccc(NC(=O)C(C)C)c1	inactive
3) Cc1ccc(NC(=S)N2CCN(C3CCCCC3)CC2)cc1	inactive
4) O=C(CSc1ccc(Cl)cc1)Nc1ccc(N2CCN(C(=O)c3ccc(Cl)cc3)CC2)cc1	5.01 µM (active)
5) CCc1ccccc1OC[C@@H](O)CN[C@H]1CCCc2ccccc21	inactive
6) CS(=O)(=O)N1CCC2(CC1)CN(c1ncccn1)C2	inactive
7) Cc1ccc(NC(=S)N2CCN(CCN3C(=O)c4cccc5cccc(c45)C3=O)CC2)cc1	6.31 µM (active)
8) CS(=O)(=O)N1CCC2(CC1)CN(c1ccncc1)C2	15.8 µM (active)
9) C/C(=C(/CCO)SSC[C@@H]1CCCO1)N(C=O)Cc1cnc(C)nc1N	inactive
10) CS(=O)(=O)N1CCC2(CCCN(c3ncccn3)C2)CC1	inactive
11) CS(=O)(=O)c1ccc([C@H](O)[C@H](CO)NC(=O)C(Cl)Cl)cc1	inactive
12) Cc1ccc(CNC(=O)Cc2csc(Nc3nc(=S)[nH]c4ccccc34)n2)cc1	0.891 µM (active)
13) COc1ccc(C(CNC(=O)c2cc(=O)[nH]c3ccccc23)N2CCCC2)cc1 (stereo not given)	inactive
14) C=CCc1cccc(C2Nc3ccccc3C(=O)N2O)c1O (stereo not given)	5.01 µM (active)
15) N[C@@H](C(=O)O)c1ccc(C(=O)O)cc1	inactive
16) COc1ccccc1N1CCN(C[C@@H](C(=O)NC(C)(C)C)c2ccccc2)CC1	inactive
17) CCS(=O)(=O)N1CCC(C(=O)NCc2ccco2)CC1	inactive
18) COC(=O)CSC(C(=O)Nc1ccc(C)c(C)c1)c1ccccc1 (stereo not given)	1.78 µM (active)
19) Cc1ccc(OCCCC(=O)NCc2ccco2)cc1	14.1 µM (active)
20) COc1ccc(S(=O)(=O)N2CCN(CC(=O)Nc3cc(OC)cc(OC)c3)CC2)cc1	inactive
21) O=C(NCCCN1CCN(c2ccccc2F)CC1)C1CCC(=O)N1C1CCCCC1 (stereo not given)	inactive
22) Cc1ccc(OCC(=O)NNC(=O)CCC(=O)NCc2ccccc2)cc1	inactive
23) CC(C)N(Cc1ccccc1)S(=O)(=O)c1n[nH]c(C(C)(C)C)n1	3.98 µM (active)
24) CS(=O)(=O)N1CCC2(CCCN(c3ccncc3)C2)CC1	0.0794 µM (active)
25) O=C(O)c1ccc(SSc2ccc(C(=O)O)cn2)nc1	1.58 µM (active)
26) c1ccc(-c2nc(CSc3n[nH]c(-c4cccs4)n3)cs2)cc1	20 µM (active)
27) CS(=O)(=O)N1CCC2(CC1)CN(Cc1nccs1)C2	10 µM (active)
28) O=C(Cc1csc(Nc2nc(=S)[nH]c3ccccc23)n1)NCc1cccc(Cl)c1	0.0631 µM (active)
29) Cc1ccc(NC(=O)C2C3CCCC2C3c2ccccc2)cc1C (stereo not given)	inactive
30) CCCCOc1ccc(C(=O)NCc2ccco2)cc1	10 µM (active)
31) COc1ccc(CNC(=O)Cc2csc(Nc3nc(=S)[nH]c4ccccc34)n2)cc1	0.224 µM (active)
32) O=C(CN1CCN(c2ccc(Cl)cc2)CC1)Nc1cccc(F)c1	2.82 µM (active)
33) C/C(=N/NC(=O)c1ccc(C)s1)c1cccc(NC(=O)COc2ccc(Cl)cc2C)c1	1.26 µM (active)
34) O=C(/C=C/c1ccc(Cl)cc1)NCCN1CCOCC1	inactive
35) COc1ccc(-n2c(-c3cnccn3)n[nH]c2=S)cc1	inactive
36) Cc1ccc(CNC(=O)Cn2cncn2)cc1	inactive
37) CS(=O)(=O)N1CCC2(CCN(c3ccncc3)CC2)CC1	inactive
38) CC(C)(C)c1ccc(C(=O)NCCC(=O)NCc2ccco2)cc1	2.24 µM (active)
39) Cc1ccc(CS(=O)(=O)CCC(=O)NCc2ccccn2)cc1	inactive
40) CCCCNC(=O)C(=O)c1ccccc1NC(C)=O	inactive
